assay: chemical genetic growth profiling, strain panel (AID 1159580);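 further: tested at 20 µM; growth read once vehicle control cultures reached saturation at 30 °C; 1 = growth at the plate median or of vehicle wells; lower values mean less growth of the strain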; settings: S. cerevisiae deletion strains, growth OD, locus YMR223W, strain ubp8, hits give low values
In all, about 5,500 compounds went through this assay and about 2,000 (36%) were called active. Not shown: some 18% with an inconclusive outcome. The list shows a part of the results.
Please respond with 1.0 when measured normalized growth is strictly beneath 1, and with 0.0 in all other cases.

Solved entries (count: 2):
COMPOUND	ANSWER LABEL
CC[N+]1(C)CCCC(OC(=O)C(O)(c2ccccc2)c2ccccc2)C1 (stereo unspecified)	0.0
CC(=O)Nc1ccc(OC(=O)c2ccccc2O)cc1	1.0

Note: attention shifts to another entry.
Just wondering, is normalized growth of Nc1ccc(C(=O)O)c(O)c1 (tested in a mixture with another compound) below 1?
1.0
